# System: Staphylococcus epidermidis ATCC 12228
# Assay Details: Minimum Inhibitory Concentration (MIC), in vitro
# Assay type: cell-based
# Condition Notes: ATCC12228; Staphylococcus epidermidis ATCC 12228; in vitro; read-out: Minimum Inhibitory Concentration (MIC)
# MIC per entry
# unit: mg/L | format: bare number

Below: 3 molecules and their reported MIC.
CC[C@H]1OC(=O)[C@H](C)[C@@H](O[C@H]2C[C@@](C)(OC)[C@@H](OC(C)=O)[C@H](C)O2)[C@H](C)[C@@H](O[C@@H]2O[C@H](C)C[C@H](N(C)C)[C@H]2OC(C)=O)[C@](C)(O)C[C@@H](C)CN(C)[C@H](C)[C@@H](O)[C@]1(C)O ... 2.5
CC[C@H]1OC(=O)[C@H](C)[C@@H](O[C@H]2C[C@@](C)(OC)[C@@H](OC(C)=O)[C@H](C)O2)[C@H](C)[C@@H](O[C@@H]2O[C@H](C)C[C@H](N(C)C)[C@H]2OC(C)=O)[C@](C)(O)C[C@@H](C)CN(C)[C@H](C)[C@H]2OC(=O)O[C@@]21C ... 2.5
CC[C@H]1OC(=O)[C@H](C)[C@@H](O[C@H]2C[C@@](C)(OC)[C@@H](O)[C@H](C)O2)[C@H](C)[C@@H](O[C@@H]2O[C@H](C)C[C@H](N(C)C)[C@H]2O)[C@](C)(O)C[C@@H](C)CN(C)[C@H](C)[C@@H](O)[C@]1(C)O ... 0.5

Prompt: Look up MIC: CCC(=O)O[C@H]1[C@H](O[C@@H]2[C@@H](C)[C@H](O[C@H]3C[C@@](C)(OC)[C@@H](O)[C@H](C)O3)[C@@H](C)C(=O)O[C@H](CC)[C@@](C)(O)[C@H](O)[C@@H](C)N(C)C[C@H](C)C[C@@]2(C)O)O[C@H](C)C[C@@H]1N(C)C
Response: 0.05

* * *

# Test system: Staphylococcus epidermidis ATCC 12228
# Assay Details: Minimum Inhibitory Concentration (MIC), in vitro
# Type: cell-based
# Condition Notes: ATCC12228; Staphylococcus epidermidis ATCC 12228; in vitro; read-out: Minimum Inhibitory Concentration (MIC)
Reported MIC values follow for various compounds
Report as a plain number; the unit µg/mL is understood.

CCC(=O)O[C@H]1[C@H](O[C@@H]2[C@@H](C)[C@H](O[C@H]3C[C@@](C)(OC)[C@@H](O)[C@H](C)O3)[C@@H](C)C(=O)O[C@H](CC)[C@@]3(C)OC(=O)O[C@@H]3[C@@H](C)N(C)C[C@H](C)C[C@@]2(C)O)O[C@H](C)C[C@@H]1N(C)C [Example 10] ... 0.5

# input for lookup
Prompt: # returns recorded MIC (system: Staphylococcus epidermidis ATCC 12228) for CC[C@H]1OC(=O)[C@H](C)[C@@H](O[C@H]2C[C@@](C)(OC)[C@@H](O)[C@H](C)O2)[C@H](C)[C@@H](O[C@@H]2O[C@H](C)C[C@H](N(C)C)[C@H]2O)[C@](C)(O)C[C@@H](C)CN(C)[C@H](C)[C@H]2OC(=O)O[C@@]21C [Example 7]
Response: 0.5

* * *

# Test system: Staphylococcus epidermidis ATCC 12228
# Assay Details: Minimum Inhibitory Concentration (MIC), in vitro
# Type: cell-based
# Condition Notes: ATCC12228; Staphylococcus epidermidis ATCC 12228; in vitro; read-out: Minimum Inhibitory Concentration (MIC)
Endpoint: MIC (µg/mL)
Give the quantity in µg/mL, number only.

Field: example entries. Status: answers known.
CCC(=O)O[C@H]1[C@H](O[C@@H]2[C@@H](C)[C@H](O[C@H]3C[C@@](C)(OC)[C@@H](OC(=O)CC)[C@H](C)O3)[C@@H](C)C(=O)O[C@H](CC)[C@@]3(C)OC(=O)O[C@@H]3[C@@H](C)N(C)C[C@H](C)C[C@@]2(C)O)O[C@H](C)C[C@@H]1N(C)C [Example 11] ... 2.5
CC[C@H]1OC(=O)[C@H](C)[C@@H](O[C@H]2C[C@@](C)(OC)[C@@H](O)[C@H](C)O2)[C@H](C)[C@@H](O[C@@H]2O[C@H](C)C[C@H](N(C)C)[C@H]2OC(C)=O)[C@](C)(O)C[C@@H](C)CN(C)[C@H](C)[C@H]2OC(=O)O[C@@]21C [Example 8] ... 0.5

Prompt: Look up MIC for this molecule: CC[C@H]1OC(=O)[C@H](C)[C@@H](O[C@H]2C[C@@](C)(OC)[C@@H](O)[C@H](C)O2)[C@H](C)[C@@H](O[C@@H]2O[C@H](C)C[C@H](N(C)C)[C@H]2O)[C@](C)(O)C[C@@H](C)CN[C@H](C)[C@@H](O)[C@]1(C)O [Standard, reference compound]
Response: 0.5

Prompt: Again, but for CCC(=O)O[C@H]1[C@H](O[C@@H]2[C@@H](C)[C@H](O[C@H]3C[C@@](C)(OC)[C@@H](OC(=O)CC)[C@H](C)O3)[C@@H](C)C(=O)O[C@H](CC)[C@@](C)(O)[C@H](O)[C@@H](C)N(C)C[C@H](C)C[C@@]2(C)O)O[C@H](C)C[C@@H]1N(C)C [Example 6]
Response: 0.1
